Data provenance: patent US20150329558A1

test: Microsomal stability assay, rat; format: in vitro ADME; details: metabolic stability, rat liver microsomes 0.5 mg/mL, substrate 3 uM
Quick reference: MS Rat THalf of the listed items.

# Compound, MS Rat THalf / min
records = [
    ("O=c1c2cc(-c3cnc(N4CCCCC4)nc3)ccc2nnn1CCOc1ncccn1 [Compound V-12]", 11),
    ("Cc1nc(Cn2nnc3ccc(-c4ccc(OC(F)(F)F)cc4)cc3c2=O)co1 [II-99]", 42),
    ("O=C(c1ncccc1F)N1CCc2ccc(-c3ccc(C(F)(F)F)cc3)cc2C1 [IX-25]", 170),
    ("Cc1nc(Cn2nnc3ccc(-c4ccc(OC(F)(F)F)cc4)cc3c2=O)no1 [II-6]", 144),
    ("O=C(c1ncc[nH]1)N1CCc2ccc(-c3ccc(C(F)(F)F)cc3)cc2C1 [IX-57]", 132),
    ("O=c1c2cc(-c3ccc(OC(F)(F)F)cc3)ccc2cnn1CCn1cccn1 [III-9]", 81),
    ("Cc1noc(Cn2nnc3ccc(-c4ccc(Oc5ccccc5)cc4)cc3c2=O)n1 [II-7]", 10),
    ("O=c1c2cc(-c3ccc(OC(F)(F)F)cc3)ccc2cnn1Cc1ncccn1 [III-5]", 56),
    ("O=c1c2cc(-c3ccc(OC(F)(F)F)cc3)ccc2cnn1CCc1ccncn1 [III-36]", 32),
    ("O=c1c2cc(-c3ccc(OC(F)(F)F)cc3)ccc2nnn1CC1(CO)CC1 [II-75]", 75),
    ("O=c1c2cc(-c3ccc(OC(F)(F)F)cc3)ccc2cnn1CCOc1ncc(Cl)cn1 [III-37]", 96),
    ("O=c1c2cc(-c3ccc(OC(F)(F)F)cc3)ccc2nnn1Cc1ncc(Cl)cn1 [II-4]", 135),
    ("O=c1c2cc(-c3ccc(OC(F)(F)F)cc3)ccc2nnn1CCc1ccncn1 [II-17]", 24),
    ("O=c1c2cc(-c3ccc(OC(F)(F)F)cc3)ccc2cnn1Cc1nccc(C2CC2)n1 [III-23]", 42),
    ("O=C1c2cc(-c3ccc(OC(F)(F)F)cc3)ccc2SCN1Cc1ccccn1 [Compound X-1]", 58),
    ("Cc1cc(C)nc(Cn2ncc3ccc(-c4ccc(OC(F)(F)F)cc4)cc3c2=O)n1 [III-22]", 86),
    ("Cc1nc(Cn2cnc3ccc(-c4ccc(OC(F)(F)F)cc4)cc3c2=O)no1 [IV-9]", 243),
    ("O=C1c2cc(-c3ccc(C(F)(F)F)cc3)ccc2SCN1Cc1ncccn1 [Compound X-4]", 122),
    ("Cc1cccc(CCn2ncc3ccc(-c4ccc(OC(F)(F)F)cc4)cc3c2=O)n1 [III-18]", 20),
    ("N#Cc1ccnc(OCCn2nnc3ccc(-c4ccc(OC(F)(F)F)cc4)cc3c2=O)n1 [II-36]", 108),
    ("COC(=O)C1(Cn2nnc3ccc(-c4ccc(OC(F)(F)F)cc4)cc3c2=O)CC1 [II-55]", 2),
    ("O=c1c2cc(-c3ccc(OC(F)(F)F)cc3)ccc2nnn1Cc1coc(C2CCC2)n1 [II-98]", 16),
    ("O=c1c2cc(-c3ccc(OC(F)(F)F)cc3)ccc2nnn1CCOc1ncccn1 [II-32]", 237),
    ("Cc1nonc1Cn1cnc2ccc(-c3ccc(OC(F)(F)F)cc3)cc2c1=O [IV-3]", 219),
    ("O=C(Cn1nnc2ccc(-c3ccc(OC(F)(F)F)cc3)cc2c1=O)N1CCN(c2ncccn2)CC1 [II-41]", 16),
    ("CCc1nccn1CC1(Cn2nnc3ccc(-c4ccc(OC(F)(F)F)cc4)cc3c2=O)CC1 [II-57]", 2),
    ("Cc1ncc(Cn2nnc3ccc(-c4ccc(OC(F)(F)F)cc4)cc3c2=O)o1 [II-95]", 121),
    ("O=C(NCc1ccco1)N1CCc2ccc(-c3ccc(C(F)(F)F)cc3)cc2C1 [IX-48]", 37),
    ("N#CC1(c2ccc(-c3ccc4nnn(CCOc5ncccn5)c(=O)c4c3)cc2)CC1 [II-50]", 49),
    ("O=c1c2cc(C#Cc3ccc(OC(F)(F)F)cc3)ccc2nnn1CCOc1ncccn1 [VII-1]", 44),
    ("Cc1cc(C)n(CC2(Cn3nnc4ccc(-c5ccc(OC(F)(F)F)cc5)cc4c3=O)CC2)n1 [II-64]", 16),
    ("Cc1coc(Cn2nnc3ccc(-c4ccc(OC(F)(F)F)cc4)cc3c2=O)n1 [II-97]", 24),
    ("O=c1c2cc(-c3ccc(OC(F)(F)F)cc3)ccc2cnn1Cc1nccc(OCC2CC2)n1 [III-27]", 43),
]

---

Quick reference: MS Human THalf of the listed items.
Assay: Microsomal stability assay, human
Format: in vitro ADME
Conditions: metabolic stability, human liver microsomes 0.5 mg/mL, substrate 3 uM
Procedure: The micorsomal stability assay is generally performed as follows. Format: 15 compounds (and 1 control verapamil) in 3 different species in duplicate sets Substrate: 3 uM Protein concentration: 0.5 mg/mL (for dog, rat, and human liver microsomes) Cofactor: 1×NADPH-Regenerating system Time-points: 2, 12, 25, 45, and 65 minutes [table] Sample preparation: 25 uL at each timepoint is added to plate with 225 uL quenching solution (50% MeOH, 25% ACN, 25% H2O, and 50 nM test compound). […]

# Compound, Qualifier Sign, MS Human THalf, min
data = [
    ("N#Cc1cnc(OCCn2nnc3ccc(-c4ccc(OC(F)(F)F)cc4)cc3c2=O)nc1", ">", 395),
    ("Cc1nc(Cn2ncc3ccc(-c4ccc(OC(F)(F)F)cc4)cc3c2=O)no1", ">", 395),
    ("Cc1nc(Cn2cnc3ccc(-c4ccc(OC(F)(F)F)cc4)cc3c2=O)no1", ">", 395),
    ("O=c1c2cc(-c3ccc(OC(F)(F)F)cc3)ccc2nnn1Cc1ncccn1", ">", 395),
    ("O=C1c2cc(-c3ccc(OC(F)(F)F)cc3)ccc2CCN1Cc1ccccn1", "=", 65),
    ("O=c1c2cc(-c3ccc(OC(F)(F)F)cc3)ccc2nnn1Cc1cc(-c2ccccn2)on1", "=", 339),
    ("Cc1cc(C)nc(Cn2ncc3ccc(-c4ccc(OC(F)(F)F)cc4)cc3c2=O)n1", "=", 252),
    ("O=C(Cn1nnc2ccc(-c3ccc(OC(F)(F)F)cc3)cc2c1=O)N1CCN(c2ncccn2)CC1", "=", 28),
    ("CC(c1nc(-c2ncccn2)no1)n1nnc2ccc(-c3ccc(OC(F)(F)F)cc3)cc2c1=O (stereo not drawn)", ">", 395),
    ("O=c1c2cc(-c3ccc(OC(F)(F)F)cc3)ccc2nnn1CCn1ccc(C(F)(F)F)n1", "=", 319),
    ("O=C(c1ncccn1)N1CCc2ccc(-c3ccc(OC(F)(F)F)cc3)cc2C1", "=", 145),
    ("Cc1cc(C)n(CCn2ncc3ccc(-c4ccc(OC(F)(F)F)cc4)cc3c2=O)n1", "=", 13),
    ("N#CC1(c2ccc(-c3ccc4nnn(CCOc5ncccn5)c(=O)c4c3)cc2)CC1", "=", 165),
    ("Cc1noc(Cn2nnc3ccc(-c4ccc(OC(F)(F)F)cc4)cc3c2=O)n1", "=", 336),
    ("O=C(c1ccccn1)N1CCc2ccc(-c3ccc(C(F)(F)F)cc3)cc2C1", "=", 54),
    ("O=C1c2cc(-c3ccc(OC(F)(F)F)cc3)ccc2SCN1Cc1ncccn1", "=", 142),
    ("Cc1cccc(CCn2ncc3ccc(-c4ccc(OC(F)(F)F)cc4)cc3c2=O)n1", "=", 25),
    ("O=c1c2cc(-c3ccc(OC(F)(F)F)cc3)ccc2cnn1Cc1nccc(OCC2CC2)n1", "=", 268),
]

---

assay: Microsomal stability assay, rat; format: in vitro ADME; conditions: metabolic stability, rat liver microsomes 0.5 mg/mL, substrate 3 uM
The threshold is 50 min. Values of MS Rat THalf beneath it are tagged satisfied; values meeting or exceeding it are tagged not satisfied.

# Molecule, Group Label
rows = [
    ("O=c1c2cc(-c3ccc(OC(F)(F)F)cc3)ccc2cnn1CCOc1cnccn1", "satisfied"),
    ("O=c1c2cc(-c3ccc(OC(F)(F)F)cc3)ccc2nnn1CC1(CN2CCOCC2)CC1", "satisfied"),
    ("O=C(Cc1ccccn1)N1CCc2ccc(-c3ccc(C(F)(F)F)cc3)cc2C1", "satisfied"),
    ("Cc1cc(Cn2nnc3ccc(-c4ccc(OC(F)(F)F)cc4)cc3c2=O)no1", "not satisfied"),
    ("Cc1ccnn1CCn1ncc2ccc(-c3ccc(OC(F)(F)F)cc3)cc2c1=O", "satisfied"),
    ("O=C1c2cc(-c3ccc(OC(F)(F)F)cc3)ccc2SCN1Cc1ncccc1F", "satisfied"),
    ("O=C(c1ncccn1)N1CCc2ccc(-c3ccc(C(F)(F)F)cc3)cc2C1", "not satisfied"),
    ("O=c1c2cc(-c3ccc(OC(F)(F)F)cc3)ccc2nnn1Cc1nnc(C2CC2)o1", "not satisfied"),
    ("Cc1noc(Cn2nnc3ccc(-c4ccc(OC(F)(F)F)cc4)cc3c2=O)n1", "not satisfied"),
    ("O=C1c2cc(-c3ccc(OC(F)(F)F)cc3)ccc2CCN1Cc1ncccn1", "not satisfied"),
    ("COc1ccnc(Cn2ncc3ccc(-c4ccc(OC(F)(F)F)cc4)cc3c2=O)n1", "not satisfied"),
    ("O=C(N1CCc2ccc(-c3ccc(C(F)(F)F)cc3)cc2C1)N1CC(O)C1", "not satisfied"),
    ("COc1ncc(-c2cnn(CCn3ncc4ccc(-c5ccc(OC(F)(F)F)cc5)cc4c3=O)c2)cn1", "satisfied"),
    ("O=C1c2cc(-c3ccc(C(F)(F)F)cc3)ccc2OCN1Cc1ccccn1", "not satisfied"),
    ("CN(C(=O)N1CCc2ccc(-c3ccc(C(F)(F)F)cc3)cc2C1)c1ccccc1", "satisfied"),
    ("CC(Cn1ncc2ccc(-c3ccc(OC(F)(F)F)cc3)cc2c1=O)n1cccn1 (stereo not shown)", "satisfied"),
    ("O=C(N1CCCC1)N1CCc2ccc(-c3ccc(C(F)(F)F)cc3)cc2C1", "satisfied"),
    ("O=C(c1ncccn1)N1CCc2ccc(-c3ccc(OC(F)(F)F)cc3)cc2C1", "not satisfied"),
    ("O=c1c2cc(-c3ccc(OC(F)(F)F)cc3)ccc2nnn1C1CCNCC1", "not satisfied"),
    ("O=c1c2cc(-c3ccc(OC(F)(F)F)cc3)ccc2nnn1C1CCN(CC(F)(F)F)CC1", "not satisfied"),
    ("O=c1c2cc(-c3ccc(OC(F)(F)F)cc3)ccc2nnn1CC1(CN2CCCC2)CC1", "satisfied"),
    ("O=c1c2cc(-c3ccc(Oc4ccc(Cl)cc4)cc3)ccc2nnn1CCn1cccn1", "satisfied"),
    ("Cc1noc(Cn2cnc3ccc(-c4ccc(OC(F)(F)F)cc4)cc3c2=O)n1", "not satisfied"),
    ("Cc1ccn(CCn2ncc3ccc(-c4ccc(OC(F)(F)F)cc4)cc3c2=O)n1", "satisfied"),
    ("O=C(c1ccccn1)N1CCc2ccc(-c3ccc(C(F)(F)F)cc3)cc2C1", "not satisfied"),
    ("O=c1c2cc(-c3ccc(OC(F)(F)F)cc3)ccc2nnn1Cc1coc(C2CC2)n1", "satisfied"),
    ("CC1Oc2ccc(-c3ccc(OC(F)(F)F)cc3)cc2C(=O)N1Cc1ncccn1 (stereo not shown)", "not satisfied"),
]
